# Tested on: HCT-15 colon
# Experiment: NCI tumour cell line growth inhibition, 48 h
Please go through the items and note down their TGI.

For orientation, consider the following solved cases.
Compound	Measurement
COc1cc2c(oc(=O)c3c4occc4cc(OC)c23)c2cccc(OCc3ccccc3)c12	> 100 µM
N#Cc1cc2c(cc1C#N)/C(=N\c1cccc(N)n1)N=C2Nc1cccc(N)n1	76.5 µM
O=C(NCCc1ccccc1)Nc1ccc2cc3ccc(NC(=O)NCCc4ccccc4)cc3nc2c1	> 100 µM

Please give TGI for each item listed below.
1. [N-]=[N+]=NC1(c2ccccc2)C(=O)C(Cl)=C(c2ccccc2)N(c2ccccc2)C1=O (stereo not given)
2. Cn1nc2ccc([N+](=O)[O-])cc2[n+]1[O-]
3. S=c1o[nH]c(-c2ccccc2)c1C=Nc1ccccc1
4. CC[C@H](C)C1=C(OC(C)=O)[N@+]2([O-])Oc3ccc(-c4c(O)c(O)c(-c5ccc(OC(C)=O)cc5)c(OC(C)=O)c4OC(C)=O)cc3O[C@]2([C@@H](C)CC)C(=O)N1O
5. C[C@@H]1[C@H](O)CC2=C(CC[C@@H](O)C2(C)C)[C@@]1(CO)CCc1ccoc1
6. CCN(CC)c1c(-c2ccccc2)n[nH]c1C(=O)OC

1. > 100 µM
2. > 100 µM
3. > 100 µM
4. > 50 µM
5. > 50 µM
6. 40.9 µM

Hi! What's the reported TGI for Cc1ccc(S(=O)(=O)N2CCCSCCSCCCN(S(=O)(=O)c3ccc(C)cc3)CC2)cc1 on HCT-15 colon?
> 100 µM

* * *

# Test system: NCI-H226 lung
# Experiment: NCI tumour cell line growth inhibition, 48 h
Result Type: TGI (µM)
Answers are plain numbers, in µM.

Compound	Assay Target	TGI, µM
CN(C)C(=O)OCc1nc2c(N3CCOCC3)nc(-c3ccccc3)nc2n1C	NCI-H226 lung	3.65
c1ccc2c(c1)OCCc1cn[nH]c1-2	NCI-H226 lung	95.5
C[N+](C)(C)CC1CCC(C[N+](C)(C)C)C1=O (stereo not given)	NCI-H226 lung	23.3
COc1ccc2c(c1)c1c(n2CCN2CCOCC2)-c2cccc(OC)c2CC1	NCI-H226 lung	52.9

Let us move to another entry and its TGI.
Need TGI of O=S(=O)(NCCNc1nccc(-c2c(-c3ccc(F)c(O)c3)nc3sccn23)n1)c1ccc(Cl)cc1 , thanks.
18.4

* * *

# Test system: MCF7 breast
# Experiment: NCI tumour cell line growth inhibition, 48 h
Result Type: TGI (µM)
Answers are plain numbers, in µM.

> print(dat)
                            chemical.smiles  measurement
1  N#Cc1ccc(-c2c(-c3ncn[nH]3)sc(N3CCOCC3)c2C#N)c(F)c1         17.7

# evaluate next
Hello, I am looking for reported TGI with MCF7 breast for COCCOCCOCc1n(Cc2ccc3ccccc3c2)c2ccccc2[n+]1Cc1ccc2ccccc2c1 . Could you help?
1.45

* * *

Please provide measured TGI for the entries that follow.
# Tested on: LOX IMVI melanoma
# Experiment: NCI tumour cell line growth inhibition, 48 h

These solved cases illustrate the format of a correct answer.
Compound	TGI
CNCCCNC(=S)Cn1cc(C)c(=O)[nH]c1=O	> 100 µM
CCc1c2cc(OC)c(OC)cc2cc2c3cc(OC)c(OC)cc3cc[n+]12 (tested in a mixture with another compound)	> 63 µM
O=C1c2c(ccc3c2CCC3)CC1Cc1ccc2c(c1)CCC2 (stereo not drawn)	> 100 µM

Please go through the list and note TGI for each compound.
1. COC1CC(OC2CCC3(C)C(=CCC4C3C(OC(C)=O)C(OC(=O)CC(C)C)C3(C)C(C(C)=O)CCC43O)C2)OC(C)C1OC1CC(OC)C(OC2CC(OC)C(OC3OC(C)C(O)C(OC)C3O)C(C)O2)C(C)O1 (stereo not drawn)
2. O=C1NC(N2CCCC(CO)C2)=N/C1=C\c1ccccc1 (stereo not drawn)
3. O=NN1C(c2ccccc2)C2CCCC(C2=O)C1c1ccccc1 (stereo not drawn)
4. CN1CC(c2ccccc2)C(O)(C2(c3ccccc3)CN(C)CC(c3ccccc3)C2=O)C(c2ccccc2)C1 (stereo not drawn)
5. COC1=N[C@H](C(C)C)C(OC)=N[C@H]1Cc1ccc(C[C@@H]2N=C(OC)[C@@H](C(C)C)N=C2OC)s1

["43.5 µM", "> 100 µM", "54.9 µM", "> 100 µM", "> 100 µM"]

* * *

Provide the recorded TGI for the entries that follow.
# Test system: CCRF-CEM leukemia
# Experiment: NCI tumour cell line growth inhibition, 48 h
Answers are plain numbers, in µM.

Molecule	Assay Target	TGI [µM]
COc1cc2cc(C(=O)N3CC(CCl)c4ccc([N+](C)(C)Cc5ccc([N+](=O)[O-])cc5)cc43)[nH]c2c(OC)c1OC (centres undefined)	CCRF-CEM leukemia	7.01

Next:
Could you tell me which TGI is on file for CN1CCN(c2ccc(OC(F)(F)F)c(Nc3ncc4c(n3)-c3c(c(C(N)=O)nn3CCO)CC4)c2)CC1 ?
28.5

* * *

# System: DMS 114 small cell lung
# Experiment: NCI tumour cell line growth inhibition, 48 h
Exercise: for every item that follows, state its recorded TGI.

Previously resolved entries follow.
Molecule	TGI
CC(C)(C)OP(=O)(OC(C)(C)C)C(O)c1ccc(/C=C(\C#N)C(N)=O)cc1 (stereo not given)	> 100 µM
NC1C=NNC1=O (stereo not given)	> 100 µM
CCCCCCCCCC[C@@H](O)[C@@H]1CC[C@@H]([C@@H]2CC[C@@H]([C@@H](O)CCCCCCCCCC[C@H](O)CC3=CC(C)OC3=O)O2)O1 (stereo not given in full)	11.2 µM
O=C1C(=C2CCCC2)CCC1CN1CCCCC1 (stereo not given)	41.2 µM
COC(=O)CCC(=O)N1C/C(=C\c2ccccc2)C(=O)/C(=C/c2ccccc2)C1	3.56 µM
CC(C)c1ccc(C2NC(=S)NC3=C2c2ccccc2C3=O)cc1 (stereo not given)	58.8 µM
O=C(O)[C@@H]1OCCOCCO[C@@H](C(=O)O)[C@H](C(=O)O)OCCOCCO[C@H]1C(=O)O	> 92.3 µM
O=c1[nH]c2cc([N+](=O)[O-])ccc2nc1/C(=N/Nc1ccccc1)C(O)c1ccco1 (stereo not given)	> 100 µM
Cc1cc(N(CCC#N)CCC#N)ccc1N=Nc1cc(Cl)ccc1Cl	22.9 µM
O=C1CC(c2c(-c3ccccc3)[nH]c3ccccc23)C(=O)N1c1ccccc1 (stereo not given)	> 100 µM

Batch: TGI for all items listed.
1. CCOC(=O)C1C=C2O[C@@H]3OC4(CCCCC4)O[C@@H]3C2C2C(=O)CCC(=O)[C@@]12C(=O)OC (stereo not given in full)
2. N#Cc1ccc(/C=C(/C(=O)c2ccccc2)c2ccccc2)cc1
3. CCO/S(=N/S(=O)(=O)c1ccccc1)c1ccccc1[N+](=O)[O-] (stereo not given)
4. CCCCC(C)/C=C/C(=O)C1=C(O)/C(=C/C(=O)O)OC1=O (stereo not given)

> 100 µM
31.5 µM
> 100 µM
> 100 µM

* * *

# System: IGROV1 ovarian
# Experiment: NCI tumour cell line growth inhibition, 48 h
I'd be grateful if you could share measured TGI for these entries.

Please review the following examples before continuing.
Compound	Measurement
COc1ccc(C(C)c2cc(OC)c(OC)c(OC)c2)cc1 (stereo not drawn)	> 50 µM
Cn1c2c(c3ccccc31)CCN=C2C1CCCOC1=O (stereo not drawn)	> 100 µM

Below is a list of compounds. For each, state its recorded TGI.
1. CN(CCNC(=O)c1c[nH]c2c1ccc1ccccc12)CCNC(=O)c1c[nH]c2c1ccc1ccccc12
2. COC(=O)CN(CC(O)C(NC(C)=O)C(O)C=O)C(=O)OCc1ccccc1 (stereo not drawn)
3. S=c1o[nH]c(-c2ccccc2)c1C=Nc1ccccc1
4. CCOC(=O)Nc1sc2c(c1C#N)CC(C)CC2 (stereo not drawn)

1. 3.08 µM
2. > 100 µM
3. > 100 µM
4. > 100 µM

Report TGI for every entry below.
1. c1ccc2cc3c(cc2c1)Nc1c2ccccc2nc2cccc-3c12
2. Clc1cc2ccccc2c2ccccc12
3. CC(C)(C)OP(=O)(OC(C)(C)C)C(O)c1ccc(/C=C(\C#N)C(N)=O)cc1 (stereo not drawn)
4. COC(=O)c1cc(OS(=O)(=O)C(F)(F)F)c(=O)n2c1CCCC2
5. COc1cccc2c1C1(O)C2CCCCCCCCCC12OCCCO2 (stereo not drawn)
6. O=S(=O)(O)c1cc(S(=O)(=O)O)c2cc(N=Nc3c(O)ccc4ccccc34)ccc2c1

2.75 µM
> 100 µM
> 100 µM
> 100 µM
> 100 µM
> 100 µM

Please report TGI for every entry that follows.
1. COc1ccc(/C(C)=N/NC(=O)CSc2nc3ccccc3c(=O)n2CCc2ccc(S(N)(=O)=O)cc2)cc1
2. Nc1nonc1-c1nc2ccccc2n1Cc1ccc(F)cc1
3. CC(C)(C)c1cc2c(c(C(C)(C)C)c1O)CC(=O)O2
4. N#CC1=C(N)NC(=S)NC1c1ccc(-c2ccc(-c3nc4ccccc4o3)cc2)s1 (stereo not drawn)

1. 3.98 µM
2. > 100 µM
3. 89.3 µM
4. 12.7 µM

Give TGI for each listed item.
1. c1ccc(CN2CCc3[nH]c4ccccc4c3C2)cc1
2. CC[C@H](C)C1=C(OC(C)=O)[N@+]2([O-])Oc3ccc(-c4c(O)c(O)c(-c5ccc(OC(C)=O)cc5)c(OC(C)=O)c4OC(C)=O)cc3O[C@]2([C@@H](C)CC)C(=O)N1O

["> 79.5 µM", "44.7 µM"]

List TGI for every entry below, keeping the order given.
1. Cc1csc(NNC(N)=O)n1
2. COc1cccc(/C=C/c2nc3c(cnn3-c3ccccc3)c(=O)[nH]2)c1

> 100 µM
> 100 µM

Your task in this section: give TGI for each listed record.
1. NC1C=NNC1=O (stereo not drawn)
2. COc1cc2oc(=O)cc(C)c2c(OC)c1O
3. O=C(c1ccco1)N(C(=S)N1CCN(c2ccccc2)CC1)C1CCCCC1

> 100 µM
> 100 µM
> 100 µM

Data origin, for the record: PubChem BioAssay (NCI)
